# Test system: A549 cells (microtubules and spindles)
# measurement-notes: Immunofluorescence staining of tubulin
# Type: cell-based, human
# test-conditions: A549, 24 h; 0.1 nM 21, 100 nM colchicine, 1.5 nM pacritaxel, 500 nM doxorubicin
experimental-readout: mitotic spindles (α-tubulin immunofluorescence)

sample-smiles	target-or-test-system	reported-value
CCC1=C(O)c2c(oc(-c3csc4ccccc34)cc2=O)C(CC)(CC)C1=O	A549 cells (microtubules and spindles)	undetectable
COc1cccc2c1C(=O)c1c(O)c3c(c(O)c1C2=O)C[C@@](O)(C(=O)CO)C[C@@H]3O[C@H]1C[C@H](N)[C@H](O)[C@H](C)O1	A549 cells (microtubules and spindles)	undetectable
COc1cc2c(c(OC)c1OC)-c1ccc(OC)c(=O)cc1[C@@H](NC(C)=O)CC2	A549 cells (microtubules and spindles)	undetectable
